tested on: Plasmodium falciparum; assay: GSK_TCMDC: Inhibition of Plasmodium falciparum Dd2 in whole red blood cells, using parasite LDH activity as an index of growth. Test compounds present at 2uM; format: functional
measure: Inhibition (%)
Unit % implied. Number only.

Here is how some compounds turned out for Inhibition.
compound	measure-unit	Inhibition
O=C(c1cc(-c2cccs2)n[nH]1)N1CCN(S(=O)(=O)c2ccc(Cl)cc2)CC1	%	95
O=C(Nc1ccc(OC2CCN(Cc3ccsc3)C2)c(Cl)c1)c1cccs1.O=C(O)C(F)(F)F (stereo not given)	%	87
COc1ccc(N2CCN(CCCCNC(=O)c3ccc(NC(=O)c4ccc(C(F)(F)F)cc4)cc3)CC2)c(OC)c1	%	8
CC(=NNC(=N)N)c1ccc2c(c1)Cc1ccccc1-2.Cl	%	10

Could you now look at the following compound, please?
Provide value of Inhibition for this record tested with Plasmodium falciparum: CCc1cccc(NC(=O)c2ccc(CN3CCCN(CC4CCCCC4)CC3)cc2)c1.O=C(O)C(F)(F)F
36

====

test system: HepG2; assay: GSK_TCMDC: Percent inhibition of human HepG2 cell line. Test compounds present at 10uM.; type: functional
The following molecules are listed with their measured Inhibition values.
Answer with the figure and its unit, nothing else.

structure-smiles	measured
CCCc1ccc(-c2csc(NC(=O)c3ccc([N+](=O)[O-])o3)n2)cc1	72%
C=C[C@]1(C)C[C@@H](OC(=O)c2n[nH]c3ccccc3c2=O)[C@]2(C)[C@H](C)CC[C@]3(CCC(=O)[C@H]32)[C@@H](C)[C@@H]1O	0%
O=C(Nc1cccc(-c2nn3ccccc3c2-c2ccnc(Nc3ccc(C(=O)N4CCOCC4)cc3)n2)c1)c1c(F)cccc1F	72%

Entry Cc1cccc2nc(-c3ccc(-c4ccc(NC(=O)NCc5ccccc5)cc4)s3)[nH]c12 : reported Inhibition = ?
79%

Lookup O=C(NCCNc1ccnc(NCc2ccc(F)cc2)n1)c1cc2ccccc2s1
6%

Ok, now COc1ccc(Nc2ncc3c(-c4cccc(NC(=O)Cc5ccc(F)cc5)c4)c[nH]c3n2)cc1OC
21%

Field entry: O=C(Nc1ccc(N2CCN(C(=O)/C=C/c3ccccc3)CC2)c(Cl)c1)c1ccc([N+](=O)[O-])o1
98%

Follow-up entry: CS(=O)(=O)CCNCc1cccc(-c2ccc3c(Nc4cc(O)c(Cl)cc4F)ccnc3c2)c1
9%

Param item: Cc1cc(=NN=Cc2cccc(F)c2)c2cc(F)ccc2[nH]1
7%

====

tested on: Plasmodium falciparum; test: GSK_TCMDC: Inhibition of Plasmodium falciparum Dd2 in whole red blood cells, using parasite LDH activity as an index of growth. Test compounds present at 2uM; assay type: functional
Inhibition values for the molecules below.
Express the result in % but write the number alone.

molecule	measure-unit	Inhibition
O=C(O)C(F)(F)F.OCC1CCN(Cc2cccc(-c3ccc(-c4nc5cc(C(F)(F)F)ccc5[nH]4)cc3)c2)CC1	%	95

Which Inhibition value belongs to O=C(Cc1c[nH]cn1)Nc1cccc(-c2cccc(-c3nc4cc(C(F)(F)F)ccc4[nH]3)c2)c1 ?
100

Record: COc1ccc(Nc2nccc(-c3ccc4c(-c5ccsc5)cnc(N)c4c3)n2)cc1
98

Same question, CN1CCN(CC(=O)Nc2cccc(-c3ccc(-c4nc5cc(C(F)(F)F)ccc5[nH]4)s3)c2)CC1 this time
95

Note, next up: CCn1c(C)c(C)c2cc(C(=O)Nc3ccon3)ccc21
93

Let us now turn to Fc1ccc2[nH]c(-c3ccc(-c4cccc(CN5CCN(c6ccncc6)CC5)c4)cc3)nc2c1.O=C(O)C(F)(F)F
100
